System: SK-BR-3
test_description: SRB colorimetric cell growth inhibition assay, SK-BR-3
Format: cell-based
test_settings: Homo sapiens, SK-BR-3, SK-BR-3; LC=cell killing (cytotoxic effect); read-out: LC50 SK-BR-3
We begin with a simple list: items and their reported CC50.
value_kind: CC50 (µM)

>>> test_result("COc1cc(-c2c3n(c4c(=O)oc5cc(OC(=O)[C@@H](N)COCc6ccccc6)c(OC)cc5c24)CCc2c-3cc(OC)c(OC)c2OC(=O)[C@@H](N)COCc2ccccc2)ccc1OC(=O)[C@@H](N)COCc1ccccc1 [Compound 66]")
7.12
>>> test_result("COc1cc(-c2c3n(c4c(=O)oc5cc(OC(=O)[C@H](C)N)c(OC)cc5c24)CCc2cc(OC(=O)[C@H](C)N)c(OC)cc2-3)ccc1OC(=O)[C@H](C)N [Compound 42]")
8.04
>>> test_result("COc1cc(-c2c3c4cc(OC)c(OC(=O)[C@@H](NC(=O)OC(C)(C)C)C(C)C)cc4oc(=O)c3n3ccc4cc(OC(=O)[C@@H](NC(=O)OC(C)(C)C)C(C)C)c(OC)cc4c23)ccc1OC(=O)[C@@H](NC(=O)OC(C)(C)C)C(C)C [Compound 38]")
9.11
